meta.source: paper PMC7866262

Test system: influenza A/Puerto Rico/8/34 H1N1 (PR8) virus
Assay: microbe, parasite or virus in culture
Assay type: cell-based
Details: Influenza A virus, A549, 24 h, read-out: IC50 (concentration of compound causing 50% reduction of viral infection)
pIC50: −log10 of the molar value.
# pIC50 >= 4 gives y, anything below gives n

Observe how each entry below is paired with its result.
1) C[N+]([O-])(CCCc1ccccc1)Cc1cccc(O)c1 (stereo not drawn) [Compound 12h] : y
2) C[N+]([O-])(CCc1ccc(O)cc1)Cc1ccc([N+](=O)[O-])c(O)c1 (stereo not drawn) [Compound 12d] : n

Let us examine a further case.
Test whether the molecule COc1cc(Br)c(C[N+](C)([O-])CCc2ccc(O)cc2)cc1O (stereo not drawn) records pIC50 of 4 or higher.
n

###

Assay: in vitro
Settings: dog
measured_parameter: CC50 (µM)
Please reply with the bare figure in µM and do not write the unit itself.

Answered cases to consult:
1. C[N+]([O-])(CCc1ccc(O)cc1)Cc1cccc(O)c1 (stereo not shown) [Compound 12b] : 129
2. COc1cc(Br)c(C[N+](C)([O-])CCc2ccc(O)cc2)cc1O (stereo not shown) : 206

Input C[N+]([O-])(CCc1ccc(O)cc1)Cc1ccc([N+](=O)[O-])c(O)c1 (stereo not shown) [Compound 12d] . Output CC50: 101

Input C[N+]([O-])(CCCc1ccccc1)Cc1cccc(O)c1 (stereo not shown) [Compound 12h] . Output CC50: 221

Input C[N+]([O-])(CCc1ccc(O)cc1)Cc1ccc(O)cc1 (stereo not shown) [Compound 12c] . Output CC50: 114

Input COc1ccc(C[N+](C)([O-])CCc2ccc(O)cc2)cc1O (stereo not shown) [Compound 12a] . Output CC50: 137

Input C[N+]([O-])(CCc1ccc(O)cc1)Cc1ccccc1 (stereo not shown) [Compound 12e] . Output CC50: 109

###

Assay: in vitro
Conditions: human
Let's look at some molecules and their measured CC50 at 24 h.
I'd appreciate it if you wrote the number followed by its unit.

1. COc1ccc(C[N+](C)([O-])CCc2ccc(O)cc2)cc1O (stereo not shown) [Compound 12a] : 200 µM
2. C[N+]([O-])(CCc1ccc(O)cc1)Cc1cccc(O)c1 (stereo not shown) [Compound 12b] : 149 µM
3. COc1cc(Br)c(C[N+](C)([O-])CCc2ccc(O)cc2)cc1O (stereo not shown) : 211 µM

Switching to the query record.
Input C[N+]([O-])(CCc1ccc(O)cc1)Cc1ccc(O)cc1 (stereo not shown) [Compound 12c] . Output CC50 at 24 h: 83.8 µM

###

Tested on: influenza A/Puerto Rico/8/34 H1N1 (PR8) virus
Test: microbe, parasite or virus in culture
Format: cell-based
Conditions: Influenza A virus, 24 h, read-out: IC50 (concentration of compound causing 50% reduction of viral infection)
measured_parameter: IC50 (µM)
Please reply with the bare figure in µM and do not write the unit itself.

Answered cases to consult:
1. C[N+]([O-])(CCc1ccc(O)cc1)Cc1ccc([N+](=O)[O-])c(O)c1 (stereo not shown) [Compound 12d] : 70.2
2. COc1ccc(C[N+](C)([O-])CCc2ccc(O)cc2)cc1O (stereo not shown) [Compound 12a] : 137
3. C[N+]([O-])(CCCc1ccccc1)Cc1cccc(O)c1 (stereo not shown) [Compound 12h] : 73.2
4. C[N+]([O-])(CCc1ccc(O)cc1)Cc1cccc(O)c1 (stereo not shown) [Compound 12b] : 138
5. COc1cc(Br)c(C[N+](C)([O-])CCc2ccc(O)cc2)cc1O (stereo not shown) [Compound 9] : 86.8

Input C[N+]([O-])(CCc1ccc(O)cc1)Cc1ccccc1 (stereo not shown) [Compound 12e] . Output IC50: 133

Input C[N+]([O-])(CCc1ccc(O)cc1)Cc1ccc(O)cc1 (stereo not shown) [Compound 12c] . Output IC50: 84.7

###

Let's look at some compounds and their measured pIC50.
System: influenza A/Puerto Rico/8/34 H1N1 (PR8) virus
Assay: microbe, parasite or virus in culture
Type: cell-based
Details: Influenza A virus, A549, 24 h, read-out: IC50 (concentration of compound causing 50% reduction of viral infection)
Just so you know, pIC50 here is -log10 of the concentration in molar units; reply with that number alone.

Answered cases to consult:
1) C[N+]([O-])(CCc1ccc(O)cc1)Cc1cccc(O)c1 (stereo not drawn) [Compound 12b] : 4.08
2) C[N+]([O-])(CCc1ccc(O)cc1)Cc1ccc(O)cc1 (stereo not drawn) [Compound 12c] : 4.10

Switching to the query record.
Input COc1ccc(C[N+](C)([O-])CCc2ccc(O)cc2)cc1O (stereo not drawn) [Compound 12a] . Output pIC50: 4.10
